Data provenance: ChEMBL document CHEMBL1134560

Target: UniProt:P14416
Experiment: Binding affinity against dopamine receptor D2S using radioligand [3H]spiperone
Kindly apply the following: true (1) if Ki is less than 50 µM, false (0) in every other case.

Asked: Dear colleague, could you confirm whether Ki of Clc1ccc(N2CCN(Cc3ccc4ccnn4c3)CC2)cc1 falls below 50 µM? Thanks.
Given back: true (1)

Continuing:
Asked: Dear colleague, could you confirm whether Ki of Clc1ccc(N2CCN(Cc3cc4ccccn4n3)CC2)cc1 falls below 50 µM? Thanks.
Given back: true (1)

Asked: Dear colleague, could you confirm whether Ki of OCc1cnn2cccc(CN3CCN(c4ccc(Cl)cc4)CC3)c12 falls below 50 µM? Thanks.
Given back: false (0)

Asked: Dear colleague, could you confirm whether Ki of Clc1ccc(N2CCN(Cc3cccn4nccc34)CC2)cc1 falls below 50 µM? Thanks.
Given back: true (1)

Asked: Dear colleague, could you confirm whether Ki of CCOC(=O)c1cnn2cccc(CN3CCN(c4ccc(Cl)cc4)CC3)c12 falls below 50 µM? Thanks.
Given back: true (1)

Asked: Dear colleague, could you confirm whether Ki of Clc1ccc(N2CCN(Cc3cccc4ccnn34)CC2)cc1 falls below 50 µM? Thanks.
Given back: false (0)

* * *

Target: D(1A) dopamine receptor (Bos taurus)
Sequence (Q95136 whole entry): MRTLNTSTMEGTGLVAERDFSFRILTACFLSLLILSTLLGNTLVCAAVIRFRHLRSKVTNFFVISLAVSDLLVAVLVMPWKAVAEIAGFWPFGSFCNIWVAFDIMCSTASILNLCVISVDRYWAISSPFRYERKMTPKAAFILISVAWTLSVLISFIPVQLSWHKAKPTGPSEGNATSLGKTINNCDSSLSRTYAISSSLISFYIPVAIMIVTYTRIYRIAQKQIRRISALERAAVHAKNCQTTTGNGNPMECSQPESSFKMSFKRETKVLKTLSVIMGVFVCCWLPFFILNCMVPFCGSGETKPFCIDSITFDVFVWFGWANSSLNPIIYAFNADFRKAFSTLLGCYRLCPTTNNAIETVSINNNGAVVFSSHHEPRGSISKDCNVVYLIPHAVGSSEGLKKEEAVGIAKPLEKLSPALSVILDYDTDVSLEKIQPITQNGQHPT
Assay: Binding affinity against dopamine receptor D1 using radioligand [3H]-SCH- 23390
Measured pKi of individual entries
Worth noting: pKi values are minus log10 of concentrations stated in mol/L.

Bench note, D(1A) dopamine receptor (Bos taurus): Clc1ccc(N2CCN(Cc3cccc4ccnn34)CC2)cc1 , pKi reads 4.74

Bench note, D(1A) dopamine receptor (Bos taurus): Clc1ccc(N2CCN(Cc3cccn4nccc34)CC2)cc1 , pKi reads 4.49

Bench note, D(1A) dopamine receptor (Bos taurus): Clc1ccc(N2CCN(Cc3cc4ccccn4n3)CC2)cc1 , pKi reads 5.26

Bench note, D(1A) dopamine receptor (Bos taurus): CCOC(=O)c1cnn2cccc(CN3CCN(c4ccc(Cl)cc4)CC3)c12 , pKi reads 4.72

Bench note, D(1A) dopamine receptor (Bos taurus): OCc1cnn2cccc(CN3CCN(c4ccc(Cl)cc4)CC3)c12 , pKi reads 4.15

From here, focus on the item given below.
Bench note, D(1A) dopamine receptor (Bos taurus): Clc1ccc(N2CCN(Cc3ccc4ccnn4c3)CC2)cc1 , pKi reads 5.12

* * *

Target: D(2) dopamine receptor (Homo sapiens, UniProt P14416)
Sequence (P14416 whole entry): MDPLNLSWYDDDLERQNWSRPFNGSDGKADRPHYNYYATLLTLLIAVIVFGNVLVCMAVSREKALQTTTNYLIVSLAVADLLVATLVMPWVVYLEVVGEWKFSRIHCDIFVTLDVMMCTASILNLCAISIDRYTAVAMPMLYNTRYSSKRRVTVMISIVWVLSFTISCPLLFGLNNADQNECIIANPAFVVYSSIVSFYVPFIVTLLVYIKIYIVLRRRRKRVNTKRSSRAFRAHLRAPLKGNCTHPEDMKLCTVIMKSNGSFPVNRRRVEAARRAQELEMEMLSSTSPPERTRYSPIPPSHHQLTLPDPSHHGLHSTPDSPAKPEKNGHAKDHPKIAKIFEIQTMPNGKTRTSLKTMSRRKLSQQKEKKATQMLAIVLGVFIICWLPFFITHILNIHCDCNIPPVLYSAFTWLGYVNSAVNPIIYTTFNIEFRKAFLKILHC
Assay: Binding affinity against dopamine receptor D2L using radioligand [3H]-spiperone
ASSAY_READOUT: log10 Ki (log10 of the value in µM)
Transform log10 | Measure Ki | Unit µM

Observe how each entry below is paired with its result.
So, OCc1cnn2cccc(CN3CCN(c4ccc(Cl)cc4)CC3)c12 ? Its log10 Ki was 1.59

So, Clc1ccc(N2CCN(Cc3cccc4ccnn34)CC2)cc1 ? Its log10 Ki was 1.49

So, Clc1ccc(N2CCN(Cc3cc4ccccn4n3)CC2)cc1 ? Its log10 Ki was 0.53

So, CCOC(=O)c1cnn2cccc(CN3CCN(c4ccc(Cl)cc4)CC3)c12 ? Its log10 Ki was 1.57

Continuing:
So, Clc1ccc(N2CCN(Cc3cccn4nccc34)CC2)cc1 ? Its log10 Ki was 1.20

So, Clc1ccc(N2CCN(Cc3ccc4ccnn4c3)CC2)cc1 ? Its log10 Ki was 1.11

* * *

Target: D(4) dopamine receptor (Homo sapiens)
Sequence (P21917 whole entry): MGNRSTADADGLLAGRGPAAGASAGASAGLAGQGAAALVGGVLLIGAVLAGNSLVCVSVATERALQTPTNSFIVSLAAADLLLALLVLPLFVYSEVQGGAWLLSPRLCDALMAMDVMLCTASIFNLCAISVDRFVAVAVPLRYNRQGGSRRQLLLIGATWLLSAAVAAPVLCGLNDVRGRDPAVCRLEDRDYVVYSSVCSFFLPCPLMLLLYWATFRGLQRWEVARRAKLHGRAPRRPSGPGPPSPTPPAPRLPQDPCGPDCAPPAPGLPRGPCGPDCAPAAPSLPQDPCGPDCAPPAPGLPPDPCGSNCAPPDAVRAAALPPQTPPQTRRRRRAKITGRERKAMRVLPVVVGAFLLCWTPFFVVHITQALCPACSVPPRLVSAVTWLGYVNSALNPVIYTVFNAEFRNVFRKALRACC
ASSAY_READOUT: pKi
Worth noting: pKi values are minus log10 of concentrations stated in mol/L.

Observe how each entry below is paired with its result.
So, Clc1ccc(N2CCN(Cc3ccc4ccnn4c3)CC2)cc1 ? Its pKi was 8.51

So, OCc1cnn2cccc(CN3CCN(c4ccc(Cl)cc4)CC3)c12 ? Its pKi was 5.44

From here, focus on the item given below.
So, Clc1ccc(N2CCN(Cc3cccc4ccnn34)CC2)cc1 ? Its pKi was 5.89
